Quick list: TGI per entry.
Tested on: T-47D breast
Assay: NCI tumour cell line growth inhibition, 48 h
readout: TGI (µM)

[[record]]
compound = "CC(C)=Cc1cc(C)c2c3c(c(O)c(O)c(C)c13)C(C)=CC2=O"
readout = "TGI"
unit_abbreviation = "µM"
reading_qualifier = "="
measured = 49.3

[[record]]
compound = "O=C1NC(N2CCCC(CO)C2)=N/C1=C\\c1ccccc1 (stereo not given)"
readout = "TGI"
unit_abbreviation = "µM"
reading_qualifier = ">"
measured = 100

[[record]]
compound = "COc1cccc(-c2nn(-c3ccccc3)cc2-c2ccnc(NCCCNC(=O)c3cccc(C(F)(F)F)c3)c2)c1"
readout = "TGI"
unit_abbreviation = "µM"
reading_qualifier = "="
measured = 8.4

[[record]]
compound = "Cn1nc2ccc([N+](=O)[O-])cc2[n+]1[O-]"
readout = "TGI"
unit_abbreviation = "µM"
reading_qualifier = ">"
measured = 100

[[record]]
compound = "Cc1ccc(C(=O)NCCCOc2ccc(N3C(N)=NC(N)=NC3(C)C)cc2Cl)cc1S(=O)(=O)F"
readout = "TGI"
unit_abbreviation = "µM"
reading_qualifier = ">"
measured = 100


----------
Test system: RPMI-8226 leukemia
Assay: NCI tumour cell line growth inhibition, 48 h
readout: TGI (µM)

[[record]]
compound = "CN(CCO)Cc1ncccc1O"
assayed_target = "RPMI-8226 leukemia"
readout = "TGI"
reading_qualifier = ">"
measured = 100

[[record]]
compound = "C/C(=N\\NC(N)=S)c1ccc(C)c(C)c1"
assayed_target = "RPMI-8226 leukemia"
readout = "TGI"
reading_qualifier = ">"
measured = 100

[[record]]
compound = "N#Cc1ccc(/C=C(/C(=O)c2ccccc2)c2ccccc2)cc1"
assayed_target = "RPMI-8226 leukemia"
readout = "TGI"
reading_qualifier = "="
measured = 8.82

[[record]]
compound = "Cc1c2n(c3ccccc13)S(=O)(=O)c1ccccc1-2"
assayed_target = "RPMI-8226 leukemia"
readout = "TGI"
reading_qualifier = ">"
measured = 100

[[record]]
compound = "Cn1c(=O)nc2n(-c3ccc(Cl)cc3)c(-c3ccccc3)c(-c3ccccc3)nc-2c1=O"
assayed_target = "RPMI-8226 leukemia"
readout = "TGI"
reading_qualifier = "="
measured = 71.1

[[record]]
compound = "Cc1cc(C(=O)Nc2n[nH]c3ccccc23)n[nH]1"
assayed_target = "RPMI-8226 leukemia"
readout = "TGI"
reading_qualifier = ">"
measured = 100

[[record]]
compound = "Cc1c(Cl)c(=O)oc2cc(OC/C=C3\\CCC(=O)O3)ccc12"
assayed_target = "RPMI-8226 leukemia"
readout = "TGI"
reading_qualifier = "="
measured = 42.6

[[record]]
compound = "O=C1Nc2cc(-c3cccc(O)c3)ccc2/C1=C/c1ccc[nH]1"
assayed_target = "RPMI-8226 leukemia"
readout = "TGI"
reading_qualifier = "="
measured = 5.83

[[record]]
compound = "O=C1NC(N2CCCC(CO)C2)=N/C1=C\\c1ccccc1 (configuration not stated)"
assayed_target = "RPMI-8226 leukemia"
readout = "TGI"
reading_qualifier = ">"
measured = 100

[[record]]
compound = "CCCCCCCCCCCCCCCCCCNCc1ccc(Cl)cc1"
assayed_target = "RPMI-8226 leukemia"
readout = "TGI"
reading_qualifier = "="
measured = 5.71

[[record]]
compound = "Cc1cccc(NC(=O)O/N=C(\\Cl)C(C)C)c1"
assayed_target = "RPMI-8226 leukemia"
readout = "TGI"
reading_qualifier = "="
measured = 10.5

[[record]]
compound = "Cc1ccc(S(=O)(=O)NC(=O)NCCc2ccccc2)cc1"
assayed_target = "RPMI-8226 leukemia"
readout = "TGI"
reading_qualifier = ">"
measured = 100

[[record]]
compound = "O=C1CNC(=O)/C(=C/c2c[nH]c3ccccc23)N1"
assayed_target = "RPMI-8226 leukemia"
readout = "TGI"
reading_qualifier = ">"
measured = 100

[[record]]
compound = "CCc1cccc(C(C)C)c1NC(=O)CCl"
assayed_target = "RPMI-8226 leukemia"
readout = "TGI"
reading_qualifier = ">"
measured = 100

[[record]]
compound = "CC1=C(C(=O)NCc2ccccc2)C(c2ccc(Cl)c(Cl)c2)C(C(=O)NCc2ccccc2)=C(C)N1"
assayed_target = "RPMI-8226 leukemia"
readout = "TGI"
reading_qualifier = ">"
measured = 100

[[record]]
compound = "CCOc1ccccc1NC(=O)C(=O)C(/C(=N/N)C(=O)OC)c1nc2ccc([N+](=O)[O-])cc2[nH]c1=O (configuration not stated)"
assayed_target = "RPMI-8226 leukemia"
readout = "TGI"
reading_qualifier = ">"
measured = 100

[[record]]
compound = "COc1ccc(NC(=S)NNC(=O)c2nsc3ccccc23)cc1"
assayed_target = "RPMI-8226 leukemia"
readout = "TGI"
reading_qualifier = ">"
measured = 100

[[record]]
compound = "O=C1N2Cc3c4ccc5c3CN3C(=O)N6Cc7c(ccc(c7CN1C6(c1ccccc1)C23c1ccccc1)OCCOCCOc1cc(Br)c(Br)cc1OCCOCCO4)OCCOCCOc1cc(Br)c(Br)cc1OCCOCCO5 (configuration not stated)"
assayed_target = "RPMI-8226 leukemia"
readout = "TGI"
reading_qualifier = ">"
measured = 100

[[record]]
compound = "CN(C)C(=O)OCc1nc2c(N3CCOCC3)nc(-c3ccccc3)nc2n1C"
assayed_target = "RPMI-8226 leukemia"
readout = "TGI"
reading_qualifier = "="
measured = 0.675

[[record]]
compound = "O=c1c2ccccc2[nH]c2c(O)ccc(O)c12"
assayed_target = "RPMI-8226 leukemia"
readout = "TGI"
reading_qualifier = "="
measured = 70.1

[[record]]
compound = "COCCOC(=O)NCn1cc(-c2ccccc2)nn1"
assayed_target = "RPMI-8226 leukemia"
readout = "TGI"
reading_qualifier = ">"
measured = 100

[[record]]
compound = "NC(=O)CN1CC(C2=C(O)CN(CC(N)=O)C2=O)=CC1=O"
assayed_target = "RPMI-8226 leukemia"
readout = "TGI"
reading_qualifier = ">"
measured = 100

[[record]]
compound = "NC1C=NNC1=O (configuration not stated)"
assayed_target = "RPMI-8226 leukemia"
readout = "TGI"
reading_qualifier = ">"
measured = 100

[[record]]
compound = "O=C(c1cccc2ccccc12)C1S(=O)(=O)OCCOS1(=O)=O"
assayed_target = "RPMI-8226 leukemia"
readout = "TGI"
reading_qualifier = ">"
measured = 100

[[record]]
compound = "c1cc(-c2ccc(-c3nc4ccc(C5=NCCN5)cc4s3)s2)ccc1C1=NCCN1"
assayed_target = "RPMI-8226 leukemia"
readout = "TGI"
reading_qualifier = "="
measured = 1.22

[[record]]
compound = "C/C=C/C/C=C/[C@H](C)C[C@H](O)[C@@H]1C[C@@H]2O[C@H]2/C=C/[C@@H]2OC(C)(C)O[C@H]2/C=C/C[C@H](C)CC(=O)O1"
assayed_target = "RPMI-8226 leukemia"
readout = "TGI"
reading_qualifier = "="
measured = 37

[[record]]
compound = "CC(=O)Oc1ccc2c(c1)[C@@]1(C)CCCC(C)(C)[C@@H]1CC2"
assayed_target = "RPMI-8226 leukemia"
readout = "TGI"
reading_qualifier = "="
measured = 30.3

[[record]]
compound = "COC(=O)CCC1=NCC(C)(C)O1"
assayed_target = "RPMI-8226 leukemia"
readout = "TGI"
reading_qualifier = ">"
measured = 10

[[record]]
compound = "CCOC(=O)Nc1nc2ccccc2[nH]1"
assayed_target = "RPMI-8226 leukemia"
readout = "TGI"
reading_qualifier = ">"
measured = 100

[[record]]
compound = "CN(CCNC(=O)c1c[nH]c2c1ccc1ccccc12)CCNC(=O)c1c[nH]c2c1ccc1ccccc12"
assayed_target = "RPMI-8226 leukemia"
readout = "TGI"
reading_qualifier = "="
measured = 15.6

[[record]]
compound = "CC(C)(C)OC(=O)N1CC(CCl)c2ccc(O)cc21 (configuration not stated)"
assayed_target = "RPMI-8226 leukemia"
readout = "TGI"
reading_qualifier = "="
measured = 7.96

[[record]]
compound = "Cn1c(=O)c2sc3c4sc5c(=O)n(C)c6ccccc6c5c4sc3c2c2ccccc21"
assayed_target = "RPMI-8226 leukemia"
readout = "TGI"
reading_qualifier = ">"
measured = 100


----------
Tested on: OVCAR-8 ovarian
Assay: NCI tumour cell line growth inhibition, 48 h
*1 amine or outer side, *2 acyl side, *3 side chain or, on linkers, in order; H or OH if unused. Where a SMILES comes first, the peptide text is derived from it. [ ]: non-standard residue; d: D form. The star is where a group is joined. ξ: configuration not given here. NMeY = CN[C@@H](Cc1ccc(O)cc1)C(=O)O; Ethylenediamine = C(CN[*:2])N[*:1]; ξNMeL = CNC(CC(C)C)C(=O)O; Cbz = O=C(OCc1ccccc1)*; Lac = C[C@H](O)C(=O)O; ξA = CC(N)C(=O)O
readout: TGI

[[record]]
compound = "Cc1cc(-c2nnc(/C=C/c3ccc4c(c3)OCO4)o2)n[nH]1"
measured = "> 50 µM"

[[record]]
compound = "c1ccc2c(c1)nc1n2CSCC1"
measured = "> 100 µM"

[[record]]
compound = "CC(C)(C)OC(=O)N1CC(CCl)c2ccc(O)cc21 (centres undefined)"
measured = "11.7 µM"

[[record]]
compound = "COCCOC(=O)NCn1cc(-c2ccccc2)nn1"
measured = "> 100 µM"

[[record]]
compound = "C1OC1CN1CCN(CC2CO2)CC1 (centres undefined)"
measured = "> 100 µM"

[[record]]
compound = "C[C@@H](CC(=O)O)OC1OC(COC(=O)C(C)(C)C)C(OC(=O)C(C)(C)C)C(OC(=O)C(C)(C)C)C1OC(=O)C(C)(C)C (some centres undefined)"
measured = "> 100 µM"

[[record]]
compound = "CCN(CC)c1c(-c2ccccc2)n[nH]c1C(=O)OC"
measured = "44.9 µM"

[[record]]
compound = "COc1cccc(-c2nn(-c3ccccc3)cc2-c2ccnc(NCCCNC(=O)c3cccc(C(F)(F)F)c3)c2)c1"
measured = "20.1 µM"

[[record]]
compound = "Nc1ccc(-c2cc(C(=O)Nc3nccs3)[nH]c(=S)n2)cc1"
measured = "> 100 µM"

[[record]]
compound = "O=C(CC(O)(C(F)(F)F)C(F)(F)Cl)CC(O)(C(F)(F)F)C(F)(F)Cl (centres undefined)"
measured = "> 10 µM"

[[record]]
compound = "N#C/C(c1nc2ccccc2[nH]1)=c1\\s/c(=C(/N)O)c(=N)n1-c1ccccc1"
measured = "> 100 µM"

[[record]]
compound = "N#CCCN(CCC#N)c1ccc(C(N=Nc2ccc(Cl)cc2)=Nc2ccccc2)cc1"
measured = "28.7 µM"

[[record]]
compound = "CCOC(=O)Nc1sc2c(c1C#N)CC(C)CC2 (centres undefined)"
measured = "> 100 µM"

[[record]]
compound = "Cc1c[nH]c(C(=O)O)c1-c1cccn1-c1ccc(Cl)cc1[N+](=O)[O-]"
measured = "> 100 µM"

[[record]]
compound = "COc1ccc(C[C@@H](C(=O)NCCNC(=O)C(CC(C)C)N(C)C(=O)[C@@H]2CCCN2C(=O)[C@H](C)O)N(C)C(=O)[C@@H]2CCCN2C(=O)[C@H](CC(C)C)NC(=O)C(C)NC(=O)OCc2ccccc2)cc1 (some centres undefined) (Cbz-[ξA]LP[NMeY](Me)-{Ethylenediamine-ξNMeL-Pro-Lac})"
measured = "> 100 µM"

[[record]]
compound = "CN(CCNC(=O)c1c[nH]c2c1ccc1ccccc12)CCNC(=O)c1c[nH]c2c1ccc1ccccc12"
measured = "3.91 µM"

[[record]]
compound = "CC(C)(C)c1cc(C(=O)Nc2ccc(C(=O)NCCN)cc2)cc(C(C)(C)C)c1"
measured = "10.9 µM"

[[record]]
compound = "CC(C)(C)C1CCC2c3c([nH]c4ncccc34)C3C(=O)N(c4ccccc4)C(=O)C3C2C1 (centres undefined)"
measured = "> 100 µM"

[[record]]
compound = "COc1cc(Cl)cc(-c2nn(-c3cccc(NC(=O)Nc4cccc(C(F)(F)F)c4)c3)cc2-c2ccncc2)c1"
measured = "4.88 µM"

